target: IBV-NP (nucleoprotein of influenza B virus B/Yamagata/16/1988) (Influenza B virus B/Yamagata/16/1988, UniProt Q82662, strain); experiment: ELISA; conditions: one partner purified
measuredParameter: binding result

[[record]]
binder = "H9N2-NP-Nb53-HRP (VHH) VHH: ESGGGSVQAGGSLRLSCAASGYTFSNVYMGWFRQAPGKEREGVAAIDRDGRTTYGDSVKGRFTISQDNAKNILYLQMSSLKPEDTATYYCAADPGYVELISEPLAGIWYRYWGQGTQVTVSS"
val = "no binding"

[[record]]
binder = "H9N2-NP-Nb16-HRP (VHH) VHH: ESGGGSVQAGGSLRLSCAASGYTYSAYCMGWFRQAPGKEREEVASIDSDFGTNYADSVKGRFTISKDNPKNTLYLQMNNLKAEDTAMYYCAALKYSSSLCLDALPSRANYWGQGTQVTVSS"
val = "no binding"

[[record]]
binder = "H9N2-NP-Nb42-HRP (VHH) VHH: ESGGESVQAGGSLRLSCATSGFTYNRSYCMAWFRQVLGKEREGVAVIDRVGGSTYYADSVKGRFTVSQDNAKTTLYLQMNSLTPEDTAMYYCAAVSTLMTTCQGLLAGHSQRYAYWGQGTQVTVSS"
val = "no binding"

